biological target: T1, human eukaryotic translation initiation factor 4E (eIF4E), full-length (human, UniProt P06730 2-217); assay: competitive fluorescence anisotropy (FP), displacement of FAM tracer from eIF4E, apparent Kd
T1 construct: mature; For SPR it was amine-coupled to a CM5 chip with m7GTP present in a 2:1 ratio. 'mature' is used here for full length; also called full length eIF4E
T1 sequence (P06730 2-217): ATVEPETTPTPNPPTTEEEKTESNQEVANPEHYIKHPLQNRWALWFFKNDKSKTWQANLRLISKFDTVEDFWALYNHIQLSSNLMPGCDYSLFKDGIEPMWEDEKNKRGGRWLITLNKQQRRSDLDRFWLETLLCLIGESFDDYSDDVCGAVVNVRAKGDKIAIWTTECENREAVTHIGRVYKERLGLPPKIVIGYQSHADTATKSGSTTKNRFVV
Positions of bridges follow the written chain, without caps; N, C: chain ends. Non-standard residues stand in square brackets, D forms with d. S5 = C=CCCC[C@](C)(N)C(=O)O; Abu = CC[C@H](N)C(=O)O; Aib = CC(C)(N)C(=O)O
endpointLabel: pKd
Note on pKd: it is the negative log10 of concentration, concentration in mol/L.

# input Sample Ac-KKRYSR[S5]FLL[S5]F-NH2 (staple 7-11; SMILES CC(=O)N[C@@H](CCCCN)C(=O)N[C@@H](CCCCN)C(=O)N[C@@H](CCCNC(=N)N)C(=O)N[C@@H](Cc1ccc(O)cc1)C(=O)N[C@@H](CO)C(=O)N[C@@H](CCCNC(=N)N)C(=O)N[C@@]1(C)CCCC=CCCC[C@@](C)(C(=O)N[C@@H](Cc2ccccc2)C(N)=O)NC(=O)[C@H](CC(C)C)NC(=O)[C@H](CC(C)C)NC(=O)[C@H](Cc2ccccc2)NC1=O, Printed KKRYSR*FLL*F, * = staple position) [sTIP-01] — what was its pKd?
# output 6.25

# input Sample Ac-KKRYSR[Aib]FLL[Aib][Abu]-NH2 (SMILES CC[C@H](NC(=O)C(C)(C)NC(=O)[C@H](CC(C)C)NC(=O)[C@H](CC(C)C)NC(=O)[C@H](Cc1ccccc1)NC(=O)C(C)(C)NC(=O)[C@H](CCCNC(=N)N)NC(=O)[C@H](CO)NC(=O)[C@H](Cc1ccc(O)cc1)NC(=O)[C@H](CCCNC(=N)N)NC(=O)[C@H](CCCCN)NC(=O)[C@H](CCCCN)NC(C)=O)C(N)=O, Printed KKRYSRXFLLX&) [TIP-01^F12&] — what was its pKd?
# output 6.88
